- Tested On: full-length beta-Catenin (Uniprot ID P35222) (Homo sapiens (Human)) (UniProt P35222)
- Sequence (P35222 whole entry): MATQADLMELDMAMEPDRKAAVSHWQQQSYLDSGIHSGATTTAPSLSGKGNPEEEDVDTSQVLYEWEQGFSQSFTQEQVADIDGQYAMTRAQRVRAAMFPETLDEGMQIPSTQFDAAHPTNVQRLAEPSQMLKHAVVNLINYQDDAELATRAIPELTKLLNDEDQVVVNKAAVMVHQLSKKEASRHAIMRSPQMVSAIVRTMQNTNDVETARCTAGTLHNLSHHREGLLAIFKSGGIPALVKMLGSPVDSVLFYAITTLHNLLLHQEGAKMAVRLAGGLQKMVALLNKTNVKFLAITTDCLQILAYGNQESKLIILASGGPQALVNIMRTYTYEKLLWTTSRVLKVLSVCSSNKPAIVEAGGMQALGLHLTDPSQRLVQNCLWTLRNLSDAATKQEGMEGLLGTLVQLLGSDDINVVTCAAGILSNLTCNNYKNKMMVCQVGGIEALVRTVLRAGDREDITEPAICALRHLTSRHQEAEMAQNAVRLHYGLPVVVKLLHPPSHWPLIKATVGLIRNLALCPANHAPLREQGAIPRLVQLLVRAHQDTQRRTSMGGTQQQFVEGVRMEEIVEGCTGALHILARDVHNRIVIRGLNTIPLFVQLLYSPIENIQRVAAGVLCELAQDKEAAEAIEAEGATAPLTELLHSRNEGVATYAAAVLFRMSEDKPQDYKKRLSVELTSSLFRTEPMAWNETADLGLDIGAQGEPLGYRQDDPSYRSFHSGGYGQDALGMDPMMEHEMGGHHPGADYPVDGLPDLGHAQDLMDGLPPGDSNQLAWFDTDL
- Assay Procedure: fluorescence polarization competition; full-length beta-catenin, competitor 5FAM-TCF4 10-53
Starred links: 1 amine or outer side, 2 acyl side, 3 side chain; linkers in the order of their positions; H or OH if unused. Positions of bridges follow the written chain, without caps; N, C: chain ends. Non-standard residues stand in square brackets, D forms with d. Primed or numbered codes have the meaning given here. PyrS2″ = (S)-3-amino-1-((pent-4-en-1-yloxy)carbonyl)pyrrolidine-3-carboxylic acid (stapling residue), C=CCCCOC(=O)N1CC[C@@](N[*:1])(C(=O)[*:2])C1; B5(5) = 2,2-bis(4-pentenyl)glycine, 2-amino-2-(pent-4-en-1-yl)hept-6-enoic acid (stitching residue), C=CCCCC(CCCC=C)(N[*:1])C(=O)[*:2]; Phe(2-Cl) = N[C@@H](Cc1ccccc1Cl)C(=O)O; Phe(2-F) = N[C@@H](Cc1ccccc1F)C(=O)O; Bta = N[C@@H](Cc1csc2ccccc12)C(=O)O; αAllylPro = C=CC[C@@]1(C(=O)O)CCCN1; tBuAla = CC(C)(C)C[C@H](N)C(=O)O
Property Measured: pIC50
Lab note — pIC50 values are minus log10 of concentrations in M.

Solved entries (count: 2):
Lab book: pIC50 of Ac-[αAllylPro]D[tBuAla][B5(5)]DNAAFS[PyrS2″][Phe(2-Cl)][Bta]S-NH2 (staple 1-4, 4-11) [I-1020] noted as 7.28

Lab book: pIC50 of Ac-[αAllylPro]D[tBuAla][B5(5)]DNAAFT[PyrS2″][Phe(2-F)][Bta]S-NH2 (staple 1-4, 4-11) [I-1024] noted as 7.37

Below: the item to evaluate.
Lab book: pIC50 of Ac-[αAllylPro]D[tBuAla][B5(5)]DEAAFT[PyrS2″][Phe(2-Cl)][Bta][dT]-NH2 (staple 1-4, 4-11) [I-1037] noted as 7.52
